# target_entity: FKBP-12 peptidyl-prolyl isomerase (rotamase) (Homo sapiens)
# Sequence (P62942 whole entry): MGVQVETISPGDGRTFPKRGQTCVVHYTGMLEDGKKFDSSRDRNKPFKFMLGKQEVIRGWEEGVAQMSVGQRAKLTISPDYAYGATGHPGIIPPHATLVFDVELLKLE
# assay_name: Ki test procedure: inhibition of FKBP peptidyl-prolyl isomerase (rotamase) activity, chymotrypsin-coupled assay
# Format: biochemical
# assay_context: apparent Ki, substrate N-succinyl-Ala-Ala-Pro-Phe-p-nitroanilide
pKi: −log10 of the molar value.
quantity_kind: pKi

// lookup pKi for O=C1[C@@H]2CCCN2C(=O)N1c1cccc2ccccc12
< 5.00
